# credit: the NIST ThermoML archive (doi:10.1021/je700026d)

Reported mass density values for a set of compounds
Applied conditions: 298.15 K; 101.3 kPa; Liquid; Pycnometric method
± gives the expanded uncertainty stated by the source.
Measure name: mass density

INSERT INTO measurements (compound, measure_name, result) VALUES
  ('COCCO [2-methoxyethan-1-ol]', 'mass density', '959.7 ± 0.7 kg/m3'),
  ('CC(=O)c1ccccc1 [acetophenone]', 'mass density', '1023.1 ± 0.7 kg/m3'),
  ('C[S+](C)[O-] [dimethyl sulfoxide]', 'mass density', '1095.4 ± 2.5 kg/m3'),
  ('COCCOC [1,2-dimethoxyethane]', 'mass density', '861.5 ± 1 kg/m3'),
  ('NC=O [formamide]', 'mass density', '1129.2 ± 2.6 kg/m3'),
  ('CC#N [acetonitrile]', 'mass density', '776 ± 0.7 kg/m3');
